Where do the numbers come from? From ChEMBL document CHEMBL1201862.

- Test system: MDA-MB-231
- assay notes: NCI tumour cell line growth inhibition, 48 h
Activity calls are given as the source filed them. Cut-off read from the data, not from the text of the source: active = GI50 up to about 1.1 µM and inactive = higher.
quantity measured: GI50

Here's what some known entries look like.
compound	test target	GI50
COC(=O)C1CCC(=O)N1CN(C(C)=O)c1cc(OC)ccc1OC (stereo not given)	MDA-MB-231	> 100 µM (inactive)
O=C1Sc2cc3ccccc3cc2C(=O)Sc2ccc(Br)cc21	MDA-MB-231	4.09 µM (inactive)
CC(C)N(/C(F)=N\C(=O)Nc1ccccc1C(F)(F)F)C(C)C	MDA-MB-231	47.3 µM (inactive)

Prompt: Given the entry COc1ccc2c(c1)N(C(C)=O)CN1C(=O)CCC21 (stereo not given) , report its measured GI50.
Response: > 100 µM (inactive)

Prompt: Looking for the measured GI50 of "CO[C@@H](c1ccccc1)[C@H](O)[C@@](O)(c1ccccc1)P(=O)(OC)OC" , can you help?
Response: > 100 µM (inactive)

Prompt: Any idea what GI50 was measured for "O=[As]O" ?
Response: > 100 µM (inactive)

###

- Tested on: HOP-62
- assay notes: NCI tumour cell line growth inhibition, 48 h
Calls of active or inactive are those of the source. Cut-off read from the data, not from the text of the source: active = GI50 up to about 1.1 µM and inactive = higher.
# GI50 per entry

Below, 5 compounds whose answers are already recorded.
compound	test target	quantity measured	assay result
COc1ccc([C@@H]2CC(=O)NCCCCNCCCN2)cc1	HOP-62	GI50	> 100 µM (inactive)
CCOc1ccc(/N=C/c2c3ccccc3nc3ccccc23)cc1	HOP-62	GI50	39.4 µM (inactive)
COc1ccc(/N=C/c2ccc(N(CCC#N)S(=O)(=O)c3ccccc3)cc2)cc1	HOP-62	GI50	> 100 µM (inactive)
O=C1CSC(c2ccccc2O)N1c1ccc(Oc2ccc(Cl)cc2)c(Cl)c1 (stereo not drawn)	HOP-62	GI50	18.2 µM (inactive)
CSC(=S)NN=C1CCCCC1	HOP-62	GI50	47.3 µM (inactive)

Prompt: Which GI50 value belongs to "CCCCCCCC(=O)OC[n+]1ccc(-c2c(COC(=O)NC(C)C)c(COC(=O)NC(C)C)c3n2CCC3)cc1" ?
Response: 56.6 µM (inactive)

Prompt: Using the record for CC(C)(C)OC(=O)NCCNC(=O)CN(CC(=O)O)C1CCCCC1N(CC(=O)O)CC(=O)O (stereo not drawn) , report its GI50.
Response: > 100 µM (inactive)

Prompt: What value of measured GI50 is listed for "COc1c(-c2cc(C)c(Cl)c(=O)[nH]2)c(O)c(OC)c2occc12" ?
Response: > 100 µM (inactive)

Prompt: Give its GI50 value. Item: "COc1ccc(NC(=S)N/N=C(\C)c2nc3cccnc3[nH]2)cc1"
Response: 7.5 µM (inactive)

Prompt: Name the recorded GI50 for O=C1CSC(c2cccc([N+](=O)[O-])c2)N1c1ccc(-c2ccc(-n3c(-c4ccccc4)nc4ccccc4c3=O)cc2)cc1 (stereo not drawn) .
Response: 63.7 µM (inactive)

Prompt: Report GI50 for "C=C(Br)C[N+]12CN3CN(CN(C3)C1)C2" please.
Response: > 100 µM (inactive)

Prompt: # query: GI50 of entry "N#Cc1c2c(c(Nc3ccc(Cl)cc3)n3c1nc1ccccc13)CCCC2"
Response: 31.2 µM (inactive)

Prompt: Sample "CCOc1ccc(NC(=O)CCc2nnc(SC)o2)cc1" — what was its GI50?
Response: > 100 µM (inactive)
